# System: MOLM-13
# procedure_text: Cell growth inhibition, MOLM-13 leukemia cells (CellTiter-Glo)
# Format: cell-based
# condition: Homo sapiens, MOLM-13, 96 h; 4 days; read-out: IC50 (nM) MOLM-13 Cell Line (CellTiter-Glo assay)
# Description: Cell growth inhibitory activity of representative Compounds of the Disclosure was determined using CellTiter-Glo® Luminescent Cell Viability Assay. […] Cell viability was determined using the CellTiter-Glo® Luminescent Cell Viability Assay Kit (Promega, Madison, Wis.) according to the manufacture's instruction. […] The luminescent signal was measured using a Tecan Infinite M1000 multimode microplate reader (Tecan, Morrisville, N.C.). […]
property_measured: IC50 (nM)
Write down the numeric answer in nM and omit the unit.

# annotated cases, reported IC50 shown
input: Report value only: IC50, MOLM-13, `COc1cc(C)cc(Nc2nc(C)nc3[nH]c4cc(-c5c(C)noc5C)c(OC)cc4c23)c1`
output: 9340

input: Using MOLM-13 as the test system, report measured IC50 of `CCc1nn(C)c(CC)c1Nc1nc(C)nc2[nH]c3cc(-c4c(C)noc4C)c(OC)cc3c12` .
output: 20

input: Answer with IC50 of `COc1cc2c(cc1-c1c(C)noc1C)[nH]c1nc(C)nc(Nc3ccccc3C(C)C)c12` measured for MOLM-13.
output: 61

Next:
input: Output reported IC50 of the compound `COc1cc2c(cc1-c1c(C)noc1C)[nH]c1nc(C)nc(Nc3c(C)c(C4CC4)nn3C)c12` on MOLM-13.
output: 201
